Compiled from multiple publications: pKi readings for UniProtKB P19793.
Convention used: pKi is expressed as -log10 of the molar concentration.

Requested read-out: pKi. Entry: "CCCCCCOc1cc2c(cc1N(CCC)c1ccc(C(=O)O)cc1)C(C)=CCC2(C)C"
6.64

Requested read-out: pKi. Entry: "CCCCCCCOc1cc2c(cc1N(CCC)c1ccc(C(=O)O)cc1)C(C)=CCC2(C)C"
6.69

Requested read-out: pKi. Entry: "CCCN(c1ccc(C(=O)O)cc1)c1ccc2c(c1)C(C)(C)OC2(C)C"
5.82

Requested read-out: pKi. Entry: "CCOc1c(\C(CC)=C(F)/C=C/C(C)=C/C(=O)O)cc2c(c1Cl)OC(C)(C)C=C2C(C)C"
8.70

Requested read-out: pKi. Entry: "CCCCOc1c(-c2c(F)ccc3sc(/C(C)=C/C(=O)O)cc23)cc(C(C)C)cc1C(C)C"
7.27

Requested read-out: pKi. Entry: "CCCOc1cc2c(cc1\C(C)=C(F)/C=C/C(C)=C/C(=O)O)C(C(C)(C)C)=CCC2(C)C"
7.89

Requested read-out: pKi. Entry: "CCC1=CC(C)(C)Oc2cc(OC)c(\C(C)=C(F)/C=C/C(C)=C/C(=O)O)cc21"
6.56

Requested read-out: pKi. Entry: "CC(/C=C/C(F)=C(/C)c1cc2c(c(Cl)c1OC(C)C)OC(C)(C)C=C2C(C)C)=C\C(=O)O"
7.54

Requested read-out: pKi. Entry: "CCOc1c(-c2cccc3cc(/C(C)=C/C(=O)O)oc23)cc(C(C)C)cc1C(C)C"
7.66

Requested read-out: pKi. Entry: "CC(C)CN(c1ccc(C(=O)O)cc1)c1ccc2c(c1)N(C(C)C)CCC2(C)C"
7.31

Requested read-out: pKi. Entry: "CC(C)N1C(=O)CC(C)(C)c2cc(N(C)c3ccc(C(=O)O)cc3)ccc21"
4.25

Requested read-out: pKi. Entry: "CC/C(=C(F)/C=C/C(C)=C/C(=O)O)c1cc2c(c(Cl)c1OC)OC(C)(C)C=C2C(C)C"
8.89

Requested read-out: pKi. Entry: "CC(C)CCN(c1ccc(C(=O)O)cc1)c1ccc2c(c1)C(C)(C)CCN2C(C)C"
6.04

Requested read-out: pKi. Entry: "CCOc1cc2c(cc1\C(C)=C/C=C/C(C)=C/C(=O)O)C(CC)=CC(C)(C)O2"
7.28

Requested read-out: pKi. Entry: "CCCOc1c(\C(C)=C/C=C/C(C)=C/C(=O)O)cc(C(C)C)cc1C(C)C"
9.00

Requested read-out: pKi. Entry: "CCCOc1cc2c(cc1\C(C)=C(F)/C=C/C(C)=C/C(=O)O)C(C)(C)CCC2(C)C"
8.22

Requested read-out: pKi. Entry: "CCOc1c(\C(C)=C/C=C/C(C)=C/C(=O)O)cc2c(c1Cl)OC(C)(C)C=C2C(C)C"
8.40

Requested read-out: pKi. Entry: "Cc1c(N(c2ccc(C(=O)O)cc2)C(C)C)cc2c(c1C(C)(C)C)OCC2(C)C"
7.15

Requested read-out: pKi. Entry: "CCOc1cc2c(cc1\C(C)=C(F)/C=C/C(C)=C/C(=O)O)C(C(C)C)=CCC2(C)C"
8.70

Requested read-out: pKi. Entry: "CCN(c1ccc(C(=O)O)cc1)c1cc2c(cc1OC)C(C)(C)CC=C2C(C)C"
8.30

Requested read-out: pKi. Entry: "CCCOc1cc2c(cc1N(CC)c1ccc(C(=O)O)cc1)C(C(C)C)=CCC2(C)C"
7.21
